assayed system: Omomyc (synthetic or recombinant) (UniProt P01106 365-454, E425T;E432I;R438Q;R439N)
test method notes: fluorescence polarization; synthetic Omomyc; FP: 10 mM Tris-HCl, 50 mM KCl, 1 mM EDTA, 5 mM MgCl2, 10 mM DTT, 2 nM DNA stock mixed 20 ul + 20 ul protein, 30 min, pH and temperature not stated; pulldown: 50 mM Tris-HCl pH 7.5, 5% glycerol, 1.5 mM MgCl2, 150 mM NaCl, 1 mM DTT, IGEPAL, 4 C
test context: chain copies: 2; blunt
measurement name: Kd

binder	result
E box DNA (FP probe) (dsDNA) DNA 1: CCCCCACCACGTGGTGCCTGA DNA 2: TCAGGCACCACGTGGTGGGGG	~22 nM
